- Experimental details: Pharmacokinetics (oral bioavailability) following oral administration in beagle dogs
- Assay type: in vivo
- Parameters: key: NI = no improvement in oral bioavailability in comparison to saline
- Assay setup: oral, formulation 1
Measurement label: Improvement (ratio of % oral bioavailability to saline)

Molecule	Assay result
CCCCCOc1ccc(-c2ccc(-c3ccc(C(=O)NC4CC(O)C(OCCOCCOC)NC(=O)C5C(O)C(C)CN5C(=O)C(C(C)O)NC(=O)C(C(O)C(O)c5ccc(O)cc5)NC(=O)C5CC(O)CN5C(=O)C(C(C)O)NC4=O)cc3)cc2)cc1 (stereo not drawn) [Compound 19]	NI
CCCCCOc1ccc(-c2ccc(-c3ccc(C(=O)NC4CC(O)C(NCC[N+](C)(C)C)NC(=O)C5C(O)C(C)CN5C(=O)C(C(C)O)NC(=O)C(C(O)C(O)c5ccc(O)cc5)NC(=O)C5CC(O)CN5C(=O)C(C(C)O)NC4=O)cc3)cc2)cc1 (stereo not drawn) [Compound 37]	NI
CCCCCOc1ccc(-c2ccc(-c3ccc(C(=O)NC4CC(O)C(NCCNCCO)NC(=O)C5C(O)C(C)CN5C(=O)C(C(C)O)NC(=O)C(C(O)C(O)c5ccc(O)cc5)NC(=O)C5CC(O)CN5C(=O)C(C(C)O)NC4=O)cc3)cc2)cc1 (stereo not drawn) [Compound 39]	NI

Ref: patent US11654196B2
